Target: Cytochrome P450 1A2 (Homo sapiens) (UniProt P05177)
Sequence (P05177 whole entry, looked up): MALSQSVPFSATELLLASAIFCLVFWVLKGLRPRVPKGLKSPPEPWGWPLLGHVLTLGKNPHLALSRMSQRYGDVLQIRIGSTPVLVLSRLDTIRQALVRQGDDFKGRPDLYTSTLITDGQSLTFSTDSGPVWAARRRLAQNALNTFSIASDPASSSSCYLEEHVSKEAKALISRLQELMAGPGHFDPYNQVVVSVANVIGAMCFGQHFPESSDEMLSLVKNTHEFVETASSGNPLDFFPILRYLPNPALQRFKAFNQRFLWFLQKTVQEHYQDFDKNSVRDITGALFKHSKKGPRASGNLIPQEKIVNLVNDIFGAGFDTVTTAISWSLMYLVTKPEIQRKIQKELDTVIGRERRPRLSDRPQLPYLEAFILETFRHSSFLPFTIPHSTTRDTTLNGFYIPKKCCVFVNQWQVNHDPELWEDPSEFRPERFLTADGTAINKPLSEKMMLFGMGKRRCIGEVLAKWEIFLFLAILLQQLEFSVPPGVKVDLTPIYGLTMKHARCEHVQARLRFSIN
Assay: Cytochrome panel assay with activity outcomes
Conditions: recombinant CYP, pro-luciferin dealkylation, luminescence, p450-cyp1a2; series mostly up to 57.1 µM
Hit rate of the full screen: of about 16,000 compounds, about 5,700 (36%) were called active. Another 24% or so got no clear call; they are omitted. Some of the results follow.
endpoint: AC50

> print(dat)
                                smiles.data            result
1  O=C(CSc1nnc(-c2ccco2)n1-c1ccccc1)NCc1ccco1          inactive
2  Cc1ccccc1CS(=O)(=O)CCC(=O)NCCCN1CCN(c2ccccc2F)CC1          inactive
3  CSc1ccc(NC(=O)NCCCN2CCN(c3ccccc3F)CC2)cc1  2.51 µM (active)
4        O=C(CSc1nnc2sc3ccccc3n12)NCc1ccco1    10 µM (active)
5  O=C(NCCN1CCN(C(=O)C(c2ccccc2)c2ccccc2)CC1)C(=O)Nc1ccccc1          inactive

Field AC50 (Cytochrome P450 1A2 (Homo sapiens) (UniProt P05177)), entry "Cc1ccccc1-c1cncnc1Nc1ccccc1" : 15.8 µM (active)

Per the reported Cytochrome P450 1A2 (Homo sapiens) (UniProt P05177) data, "CSc1ccc(NC(=O)NCCN2CCc3ccccc3C2)cc1" has AC50 of 14.1 µM (active)

Cytochrome P450 1A2 (Homo sapiens) (UniProt P05177) data for "Cc1ccccc1NC1=C(C(=O)c2ccccc2)N(C)S(=O)(=O)c2ccccc21" ; its AC50: inactive

Value (AC50, Cytochrome P450 1A2 (Homo sapiens) (UniProt P05177)) for record "COc1ccc2c(c1)c(CC(=O)OCC(=O)O)c(C)n2C(=O)c1ccc(Cl)cc1" = inactive

Bench note, Cytochrome P450 1A2 (Homo sapiens) (UniProt P05177): "Cc1ccc(-c2ccc(/C=N\NC(=O)c3cc4c(ccc5ccccc54)o3)o2)cc1[N+](=O)[O-]" , AC50 reads 22.4 µM (active)

Measured on Cytochrome P450 1A2 (Homo sapiens) (UniProt P05177), "Cc1ccccc1-c1cncnc1Nc1ccc(F)cc1" has a documented AC50 of 10 µM (active)
